Tgt: human GIP receptor (human) (UniProt P48546)
Sequence (P48546 22-466): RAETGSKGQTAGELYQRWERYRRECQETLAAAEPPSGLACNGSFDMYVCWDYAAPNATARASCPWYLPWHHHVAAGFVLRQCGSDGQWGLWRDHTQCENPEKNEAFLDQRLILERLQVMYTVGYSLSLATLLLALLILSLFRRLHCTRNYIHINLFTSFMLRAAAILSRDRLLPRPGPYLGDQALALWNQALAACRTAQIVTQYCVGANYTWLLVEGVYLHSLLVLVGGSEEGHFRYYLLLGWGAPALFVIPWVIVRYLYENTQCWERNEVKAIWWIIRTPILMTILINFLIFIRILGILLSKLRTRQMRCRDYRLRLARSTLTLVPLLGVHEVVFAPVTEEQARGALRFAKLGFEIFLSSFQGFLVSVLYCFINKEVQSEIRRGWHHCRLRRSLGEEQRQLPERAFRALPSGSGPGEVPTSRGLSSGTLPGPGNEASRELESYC
Procedure Summary: 125I-hGIP competition binding, COS-7 cells expressing hGIPR
Ends that are not written are not given here. * marks the point of attachment. Stearoyl = CCCCCCCCCCCCCCCCCC(=O)*
Attribute Measured: IC50 (nM)
Give bare numbers, in nM.

Kindly indicate its recorded IC50. Item: EGTFISDYSIAMDK(Stearoyl)IRQQDFVNWLLAQR-NH2 (not fully specified) [AT162 [hGIP(3-30)NH2[H18R; K30R]-C18/16]]
85
